target.of.assay: human CD33 G241A (human, UniProt P20138 18-364)
Sequence (P20138 18-364 G241A limits assumed): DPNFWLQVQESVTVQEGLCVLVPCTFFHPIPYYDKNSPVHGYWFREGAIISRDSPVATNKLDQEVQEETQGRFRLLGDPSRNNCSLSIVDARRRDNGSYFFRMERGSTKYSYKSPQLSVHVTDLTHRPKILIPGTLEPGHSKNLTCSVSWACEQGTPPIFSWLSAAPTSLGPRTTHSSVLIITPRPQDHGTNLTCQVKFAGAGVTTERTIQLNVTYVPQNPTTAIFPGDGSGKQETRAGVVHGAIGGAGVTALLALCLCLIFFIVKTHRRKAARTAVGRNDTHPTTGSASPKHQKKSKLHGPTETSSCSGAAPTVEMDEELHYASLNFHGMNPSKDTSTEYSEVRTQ
method.summary: alanine scan, flow cytometry, HEK293-T;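 further: antibody binding to each alanine-substituted CD33 mutant expressed transiently in HEK293-T, read as fluorescence minus background, mean of duplicates, relative to wild-type CD33 set as 100%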
endpoint.label: Mean % WT Binding (%)
Answers are plain numbers, in %.

What value of Mean % WT Binding has been reported for the following binder? Refmab #1 (antibody, V domains shown, In the alanine scan antibodies were used as IgG or Fab; also called hP67.6) VH: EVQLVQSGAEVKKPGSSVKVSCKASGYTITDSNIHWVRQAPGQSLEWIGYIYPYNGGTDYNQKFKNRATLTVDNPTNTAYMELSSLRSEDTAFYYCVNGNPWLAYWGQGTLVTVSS VL: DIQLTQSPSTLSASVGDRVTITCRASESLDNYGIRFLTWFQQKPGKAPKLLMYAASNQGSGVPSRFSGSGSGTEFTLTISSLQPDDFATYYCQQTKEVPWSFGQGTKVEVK
102

Data credit: patent US20260242735A1
